- Assay Summary: Bioavailability in 6 MPTP-treated dyskinetic PD-LID rhesus monkey model at 2 mg/kg administered BID
- Type: ADME, organism-based, Macaca mulatta
- Assay Conditions: in vivo
Readout: bioavailability (%)
Field: numeric (%). Do not append units.

Per the records, this compound ( CC(C)(C)C[C@@H]1COCc2nc(OCc3ccccn3)cc(=O)n21 ) has bioavailability equal to 91

====

I'd appreciate it if you could supply Vd values for the items below.
- Assay Summary: Volume of distribution at steady state in Sprague-Dawley rat at 1 mg/kg, iv via single bolus administration
- Type: ADME, organism-based
- Assay Conditions: in vivo, read-out: Vdss

Per the records, this compound ( CC(C)(C)C[C@@H]1COCc2nc(OCc3ccccn3)cc(=O)n21 ) has Vd equal to 1.29 L/kg

Per the records, this compound ( CC(C)C[C@@H]1COCc2nc(OCc3cccc(C#N)c3)cc(=O)n21 ) has Vd equal to 2.14 L/kg

====

- Assay Summary: AUC (0 to 24 hrs) at steady state in cynomolgus monkey at 600 mg/kg/day, administered via oral gavage for 14 consecutive days measured on day 13
- Assay type: ADME, organism-based, Macaca fascicularis
- Parameters: dose 600 mg/kg/day, time < 24 hr, route oral
- Assay Conditions: in vivo
Readout: AUC at 24 h (ng·h/mL)
Field: numeric (ng·h/mL). Do not append units.

Per the records, this compound ( CC(C)(C)C[C@@H]1COCc2nc(OCc3ccccn3)cc(=O)n21 ) has AUC at 24 h equal to 41500

====

- Assay Summary: AUC (0 to 24 hrs) at steady state in cynomolgus monkey at 150 mg/kg/day, administered via oral gavage for 14 consecutive days measured on day 13
- Format: ADME, organism-based, Macaca fascicularis
- Design: time < 24 hr, dose 150 mg/kg/day, route oral
- Assay Conditions: in vivo
Readout: AUC at 24 h (µg·h/mL)
Field: numeric (µg·h/mL). Do not append units.

Per the records, this compound ( CC(C)(C)C[C@@H]1COCc2nc(OCc3ccccn3)cc(=O)n21 ) has AUC at 24 h equal to 45.4

====

- Assay Summary: Oral bioavailability cynomolgus monkey […] at 30 mg/kg
- Format: ADME, organism-based, Macaca fascicularis
- Assay Conditions: in vivo
Readout: bioavailability (%)
Field: numeric (%). Do not append units.

Per the records, this compound ( CC(C)(C)C[C@@H]1COCc2nc(OCc3ccccn3)cc(=O)n21 ) has bioavailability equal to 11

Per the records, this compound ( CC(C)C[C@@H]1COCc2nc(OCc3cccc(C#N)c3)cc(=O)n21 ) has bioavailability equal to 43

====

I'd appreciate it if you could supply Papp A→B at 2 h, 1 µM values for the items below.
- Assay Summary: Apparent permeability across apical to basolateral side in RRCK cells at 1 uM after 2 hrs by LC/MS-MS analysis
- Format: ADME, cell-based, Canis lupus familiaris, MDCKII-LE
- Assay Conditions: dog, MDCK
Field: numeric (×10⁻⁶ cm/s). Do not append units.

Per the records, this molecule ( CC(C)C[C@@H]1COCc2nc(OCc3cccc(C#N)c3)cc(=O)n21 ) has Papp A→B at 2 h, 1 µM equal to 28

Per the records, this molecule ( O=c1cc(OCc2cccc(Cl)c2)nc2ccc(Oc3cccnc3)cn12 ) has Papp A→B at 2 h, 1 µM equal to 7

Per the records, this molecule ( CC(C)C[C@@H]1COCc2nc(OCc3ccccn3)cc(=O)n21 ) has Papp A→B at 2 h, 1 µM equal to 39

Per the records, this molecule ( CC(C)(C)C[C@@H]1COCc2nc(OCc3ccccn3)cc(=O)n21 ) has Papp A→B at 2 h, 1 µM equal to 29

Per the records, this molecule ( Cc1cccc(COc2cc(=O)n3cc(Oc4cccnc4)ccc3n2)n1 ) has Papp A→B at 2 h, 1 µM equal to 24

Per the records, this molecule ( N#Cc1cccc(COc2cc(=O)n3c(n2)COC[C@H]3Cc2ccccc2)c1 ) has Papp A→B at 2 h, 1 µM equal to 26

====

- Assay Summary: Ratio of unbound drug level in cynomolgus monkey brain to plasma at 600 mg/kg, po measured 7.65 hrs post dose on day 1
- Assay type: ADME, organism-based, Macaca fascicularis
- Assay Conditions: read-out: K(p,uu,brain)
Readout: Kp uu at 7.65 h
Please reply with the number alone, leaving off any unit.

Per the records, this molecule ( CC(C)(C)C[C@@H]1COCc2nc(OCc3ccccn3)cc(=O)n21 ) has Kp uu at 7.65 h equal to 0.89

====

- Assay Summary: Ratio of free AUC (0 to 4 hrs) in Sprague-Dawley rat brain to plasma at 0.32 to 1 mg/kg, sc
- Format: ADME, organism-based
Readout: Kp uu
Please reply with the number alone, leaving off any unit.

Per the records, this molecule ( CC(C)C[C@@H]1COCc2nc(OCc3cccc(C#N)c3)cc(=O)n21 ) has Kp uu equal to 2.19

Per the records, this molecule ( CC(C)(C)C[C@@H]1COCc2nc(OCc3ccccn3)cc(=O)n21 ) has Kp uu equal to 1.22

====

- Assay Summary: AUC (0 to 24 hrs) at steady state in Crl:CD(SD) rat at 50 mg/kg/day, administered via oral gavage for 14 consecutive days measured on day 13
- Type: ADME, organism-based
- Design: dose 50 mg/kg/day, time < 24 hr, route oral
- Assay Conditions: in vivo
Readout: AUC at 24 h
Give the number first and the unit second.

Per the records, this compound ( CC(C)(C)C[C@@H]1COCc2nc(OCc3ccccn3)cc(=O)n21 ) has AUC at 24 h equal to 23200 ng·h/mL

====

- Assay Summary: AUC (0 to 24 hrs) at steady state in cynomolgus monkey at 50 mg/kg/day, administered via oral gavage for 14 consecutive days measured on day 13
- Type: ADME, organism-based, Macaca fascicularis
- Set-up: time < 24 hr, dose 50 mg/kg/day, route oral
- Assay Conditions: in vivo
Readout: AUC at 24 h (ng·h/mL)
Field: numeric (ng·h/mL). Do not append units.

Per the records, this compound ( CC(C)(C)C[C@@H]1COCc2nc(OCc3ccccn3)cc(=O)n21 ) has AUC at 24 h equal to 3680

====

- Assay Summary: AUC (0 to 24 hrs) at steady state in Crl:CD(SD) rat at 150 mg/kg/day, administered via oral gavage for 14 consecutive days measured on day 13
- Type: ADME, organism-based
- Set-up: time < 24 hr, dose 150 mg/kg/day, route oral
- Assay Conditions: in vivo
Readout: AUC at 24 h (µg·h/mL)
Field: numeric (µg·h/mL). Do not append units.

Per the records, this molecule ( CC(C)(C)C[C@@H]1COCc2nc(OCc3ccccn3)cc(=O)n21 ) has AUC at 24 h equal to 117
